Sourced from paper PMC11013284

system: L. infantum (MHOM/MA(BE)/67) amastigotes in primary peritoneal mouse macrophages; test: L. infantum intramacrophage amastigote assay (microscopic burden); type: cell-based, Leishmania infantum; details: 5 days, mouse macrophages as host
Property: IC50

Look over these answered cases.
{"Compound": "O=C1CC(c2ccco2)SC(c2ccco2)C1 (racemic)", "IC50": "> 64 µM"}
{"Compound": "COc1ccc([C@H]2CC(=O)C[C@H](c3ccc(OC)cc3)S2)cc1 (relative stereo)", "IC50": "≥ 64 µM"}
{"Compound": "COc1ccc(C2CC(=O)CC(c3ccc(OC)cc3)S2)cc1 (stereo not drawn)", "IC50": "≥ 64 µM"}
{"Compound": "O=C(/C=C/c1ccccc1)/C=C/c1ccc(C(F)(F)F)cc1", "IC50": "> 64 µM"}
{"Compound": "COc1ccc(/C=C/C(=O)/C=C/c2ccc(OC)cc2)cc1", "IC50": "≥ 64 µM"}

Moving on to another compound below.
IC50 lookup needed for COc1cc(/C=C/C(=O)/C=C/c2ccc(O)c(OC)c2)ccc1O , thanks.
≥ 32 µM

---

Catalogue of IC50 values
system: Trypanosoma brucei brucei trypomastigotes, suramin-sensitive strain (Squib 427); assay: T. b. brucei growth/viability assay (resazurin); format: cell-based; conditions: 3 days

Reference set (3 entries):
{"Compound": "O=C1CC(c2ccccc2Cl)SC(c2ccccc2Cl)C1 (racemic)", "IC50": "> 64000 nM"}
{"Compound": "O=C(/C=C/c1ccccc1)/C=C/c1ccccn1", "IC50": "≤ 200 nM"}
{"Compound": "N#Cc1ccc(/C=C/C(=O)/C=C/c2ccccc2)cc1", "IC50": "≤ 200 nM"}

So what's the measured IC50 for this one? COc1cc(/C=C/C(=O)/C=C/c2ccc(O)c(OC)c2)ccc1O
≤ 300 nM

---

Listed below: pIC50 values for each entry.
system: WT LV9 L. donovani intramacrophage amastigotes; test: L. donovani intramacrophage amastigote assay; type: cell-based, Leishmania donovani; settings: Leishmania donovani, WT LV9; ± SD in Tables S5/S6; read-out: IC50 L. donovani intramacrophage amastigotes
pIC50: −log10 of the molar value.

Recorded pIC50 for COc1ccc(C2CC(=O)CC(c3ccc(OC)cc3)S2)cc1 (stereo not drawn) , please?
< 4.00

Consider the molecule N#Cc1ccc(/C=C/C(=O)/C=C/c2ccc(C#N)cc2)cc1 and give its measured pIC50.
< 4.30

Form field: reported pIC50 of O=C(/C=C/c1ccccc1)/C=C/c1ccccc1
< 4.00

---

system: Trypanosoma cruzi (Tulahuen CL2 β-galactosidase) amastigotes in hMRC-5SV2 cells; assay: T. cruzi intracellular amastigote assay (β-galactosidase/CPRG); type: cell-based; conditions: intracellular amastigotes, 7 days; read-out: IC50 T. cruzi intramacrophage amastigotes (converted)
Property: IC50

{"Compound": "CN(C)c1ccc(/C=C/C(=O)/C=C/c2ccc(F)cn2)cc1", "Result": "> 64 µM"}
{"Compound": "O=C1CC(c2ccc(Cl)cc2)SC(c2ccc(Cl)cc2)C1 (racemic)", "Result": "> 64 µM"}
{"Compound": "CC(=O)Nc1ccc(C2CC(=O)CC(c3ccc(NC(C)=O)cc3)S2)cc1 (racemic)", "Result": "> 64 µM"}
{"Compound": "O=C1C[C@H](c2ccccn2)S[C@@H](c2ccccn2)C1 (racemic)", "Result": "≥ 64 µM"}
{"Compound": "O=C(/C=C/c1ccccc1)/C=C/c1ccncc1", "Result": "≤ 0.2 µM"}

Attention now turns to another entry.
Which IC50 value is on record for COc1ccc(C2CC(=O)CC(c3ccc(OC)cc3)[S+]2[O-])cc1 (stereo not drawn) [3′d] ?
≥ 64 µM
